# experimental-details: amyloid nucleation score (Sup35N fusion, yeast selection) (log enrichment); library NNK1; higher = more nucleation; inactive = no reads after selection;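 note: zero at mode of non-aggregating sequences after 7 days selection at 30°C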
measurement-kind: amyloid nucleation score

          residue_codes  observed
0     CVSGVDLYRGSLGACGW  inactive
1  TNITNLSSFVMDDTGWSVNE  inactive
2  FNYHRRPLNYISNRQYGGLS  inactive

* * *

# experimental-details: amyloid nucleation score (Sup35N fusion, yeast selection) (log enrichment); library NNK1; higher = more nucleation; inactive = no reads after selection
Reported amyloid nucleation score values for a set of substances
Please give the numeric answer without any surrounding text.

Some substances with recorded amyloid nucleation score:
              substance  observed
0  FMIHMLTGSLLRVNDCNLGE     0.987
1  FFGNLVRWSNGYGDHCYSLN      2.51
2  LQYGNWPGGVFVWWFIKMHH     -0.02
3    YSLFAGLREVSMDVCNDV      0.39
4  NTKWLMGSLSIIVCMPKSYW      6.29

Data request: Indicate the recorded amyloid nucleation score value for this substance: LWYKIGFLIWSRTGTLYQGI
Data returned: 0.273

Data request: Indicate the recorded amyloid nucleation score value for this substance: NSGESLS
Data returned: -0.186

Data request: Indicate the recorded amyloid nucleation score value for this substance: DSTFHMDYY
Data returned: -0.121

Data request: Indicate the recorded amyloid nucleation score value for this substance: GAAQWMKNSTIGHARFIADL
Data returned: 0.2

Data request: Indicate the recorded amyloid nucleation score value for this substance: VFFKKAIIFRSKV
Data returned: 0.318

Data request: Indicate the recorded amyloid nucleation score value for this substance: GIFKVEHFFKFMYDLIVSKL
Data returned: -0.312

Data request: Indicate the recorded amyloid nucleation score value for this substance: ENRYMELTFQCSARRVG
Data returned: 2.81

Data request: Indicate the recorded amyloid nucleation score value for this substance: SDQSPFLIGVPWFVIYNRGG
Data returned: 1.69

Data request: Indicate the recorded amyloid nucleation score value for this substance: WVWKTNWWYTRRIASLWDSR
Data returned: 1.7

Data request: Indicate the recorded amyloid nucleation score value for this substance: PDTYRLWRWSCIFEKCCDEG
Data returned: -0.194

Data request: Indicate the recorded amyloid nucleation score value for this substance: TTDPVWFSAI
Data returned: 0.346

Data request: Indicate the recorded amyloid nucleation score value for this substance: WCNTMFWHS
Data returned: 1.09

Data request: Indicate the recorded amyloid nucleation score value for this substance: YVGSDLFYRCQKNKYHRHSL
Data returned: -0.215

* * *

# experimental-details: amyloid nucleation score (Sup35N fusion, yeast selection) (log enrichment); library NNK2; higher = more nucleation; inactive = no reads after selection
Reported amyloid nucleation score values for a set of substances
Please give the numeric answer without any surrounding text.

Some substances with recorded amyloid nucleation score:
              substance          measurement_kind  observed
0  KTYGGLLSLPVVLRMLEPRA  amyloid nucleation score     0.319
1  APNMKSNLYFPEVRLNEGSR  amyloid nucleation score     0.714
2      ILPYGVWTRIASIKLK  amyloid nucleation score     0.789
3  TMVMTVQPPLHLFCLDLMHD  amyloid nucleation score      2.24
4  MYVRVDFVFSNADRTWNPLK  amyloid nucleation score      3.76

Data request: Indicate the recorded amyloid nucleation score value for this substance: ARDRNSFGLDCAVFMSYFTT
Data returned: 3.34

Data request: Indicate the recorded amyloid nucleation score value for this substance: LLFTGNLGFTVSRSLSRRDR
Data returned: 6.95

Data request: Indicate the recorded amyloid nucleation score value for this substance: EGIVSMFVIRVYV
Data returned: 0.63

Data request: Indicate the recorded amyloid nucleation score value for this substance: TTLYMACYSSCDEGN
Data returned: -0.193

Data request: Indicate the recorded amyloid nucleation score value for this substance: TTRSRVWRKLGSSCTI
Data returned: 0.242

Data request: Indicate the recorded amyloid nucleation score value for this substance: MIMHNVANDWTVFYFLCRVV
Data returned: -0.723

Data request: Indicate the recorded amyloid nucleation score value for this substance: RINQLLTPLTWQERGP
Data returned: 3.38

Data request: Indicate the recorded amyloid nucleation score value for this substance: NQNNDHSTWSIFKLCEVGCL
Data returned: 8.99

Data request: Indicate the recorded amyloid nucleation score value for this substance: DFVPNGCNCINSGWDFRQVD
Data returned: -1.88

Data request: Indicate the recorded amyloid nucleation score value for this substance: SIGIRIEVLHAYLQTVISNA
Data returned: -0.639

Data request: Indicate the recorded amyloid nucleation score value for this substance: KFAKSSNKDHHDFYAVELGT
Data returned: -0.289
